# EXPERIMENTAL TARGET: Cytochrome P450 1A2 (Homo sapiens)
# Sequence (P05177 whole entry): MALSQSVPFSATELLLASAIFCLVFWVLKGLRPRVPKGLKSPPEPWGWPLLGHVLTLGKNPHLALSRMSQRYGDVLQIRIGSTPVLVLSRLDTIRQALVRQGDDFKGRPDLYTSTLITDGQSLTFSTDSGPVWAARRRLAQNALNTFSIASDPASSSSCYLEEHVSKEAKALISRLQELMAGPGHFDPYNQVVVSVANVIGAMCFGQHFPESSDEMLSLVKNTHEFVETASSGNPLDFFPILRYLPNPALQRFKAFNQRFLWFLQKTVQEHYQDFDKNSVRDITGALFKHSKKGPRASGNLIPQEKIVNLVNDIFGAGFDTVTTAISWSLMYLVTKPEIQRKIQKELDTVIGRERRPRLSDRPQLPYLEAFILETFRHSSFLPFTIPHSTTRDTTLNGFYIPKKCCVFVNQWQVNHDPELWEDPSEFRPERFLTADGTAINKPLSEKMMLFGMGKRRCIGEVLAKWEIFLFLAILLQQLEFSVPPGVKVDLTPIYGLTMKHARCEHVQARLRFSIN
# EXPERIMENT: Inhibition of CYP1A2 in human liver microsomes using ethoxyresorufin as substrate after 5 mins by LC-MS/MS analysis
# Type: ADME, Microsome
PARAMETER MEASURED: IC50

Fill blank: measured IC50 of the molecule CN1C/C=C/CCOc2cccc(c2)-c2ccnc(n2)Nc2cccc(c2)C1 [ZOTIRACICLIB] is ____.
> 25 µM

* * *

# Tested on: HL-60
# EXPERIMENT: Antiproliferative activity against human HL60 cells after 48 hrs
# Format: functional, cell-based
# RUN PARAMETERS: HL-60, 48 h
What pIC50 was measured for each of the following?
Entry type: numeric. Quantity: pIC50, the -log10 of concentration in molar units.

Fill blank: measured pIC50 of the compound `CN1C/C=C/CCOc2cccc(c2)-c2ccnc(n2)Nc2cccc(c2)C1` is ____.
7.23

Fill blank: measured pIC50 of the compound `CN1C/C=C/CCOc2cccc(c2)-c2ccnc(n2)Nc2ccc(N3CCOCC3)c(c2)C1` is ____.
7.12
